So I've got a bunch of molecules here, and I need their TGI values.
# Test system: CAKI-1 renal
# Method: NCI tumour cell line growth inhibition, 48 h
Only the number, expressed in µM, is required.

Give CAKI-1 renal TGI for `Cc1cc(C)c2c(=O)n(CN3CCN(c4ccccc4)CC3)sc2n1`
39.4

Give CAKI-1 renal TGI for `Nc1cccc(-c2nc3sccn3c2-c2ccnc(NCCCNS(=O)(=O)c3ccc(C(F)(F)F)cc3)n2)c1`
72.1

---

# Tested on: UACC-257 melanoma
# Method: NCI tumour cell line growth inhibition, 48 h
So I've got a bunch of molecules here, and I need their GI50 values.

What does the record list as GI50 for NC(=O)c1ncn(C2OC(CO)C(O)C2O)n1 (stereo not drawn) ?
> 100 µM

What does the record list as GI50 for `COc1cc2c3c(n(CCCN=[N+]=[N-])c(=O)c2cc1OC)-c1ccc(N)cc1C3=O` ?
0.431 µM

What does the record list as GI50 for `C=C1C(=O)O[C@H]2[C@H]1CC/C(COC(=O)NCc1c[nH]c3ccc(OC)cc13)=C\CC[C@@]1(C)O[C@@H]21` ?
2.02 µM

What does the record list as GI50 for `C[C@H](Nc1ccc(C#N)n(C)c1=O)c1cc2cc(Cl)ccc2[nH]c1=O` ?
32.6 µM

What does the record list as GI50 for `Cc1nc(NC(=O)COc2cccc(/C=C3\COc4ccccc4C3=O)c2)sc1C` ?
2.88 µM

What does the record list as GI50 for `O=[N+]([O-])c1ccc(Oc2cccnc2)c([N+](=O)[O-])c1` ?
8.81 µM

What does the record list as GI50 for C[CH2][Sn]1([CH2]C)[O]C2C(O)OC(CO)C(O)C2[O]1 (stereo not drawn) ?
14.4 µM

What does the record list as GI50 for `Cc1ccccc1NC(=O)N/C(N)=N/c1nc2ccccc2s1` ?
> 100 µM

---

# System: HCT-15 colon
# Method: NCI tumour cell line growth inhibition, 48 h
Outcome measure: TGI

What does the record list as TGI for `O=C(CN1CCOCC1)c1ccc2[nH]c(=O)oc2c1` ?
> 100 µM

What does the record list as TGI for `CSc1c(C#N)c(O)n(-c2ccc(Cl)cc2)c(=O)c1C#N` ?
> 100 µM

What does the record list as TGI for `Nc1ccc(S(=O)(=O)Nc2nc3ccccc3nc2Nc2ccc(S(N)(=O)=O)cc2)cc1` ?
> 100 µM

What does the record list as TGI for `Cc1cc(C)nc(NC(=S)Nc2cccc(Cl)c2)c1` ?
> 100 µM

What does the record list as TGI for `CN(C)c1cc2c(Nc3ccc4nc(Cc5ccccc5)[nH]c4c3)ncnc2cn1` ?
> 25 µM

What does the record list as TGI for `CCOP(=O)(OCC)/C(=C/c1ccccc1)CC(C)=O` ?
> 100 µM

What does the record list as TGI for `COc1cc(O)c2c(=O)c3ccccc3n(C)c2c1` ?
> 100 µM

What does the record list as TGI for CC1C(=O)CCC1C(Sc1ccccc1)(Sc1ccccc1)Sc1ccccc1 (centres undefined) ?
> 100 µM

What does the record list as TGI for `Fc1ccc(C2(CCCN3CCc4[nH]c5cc(F)ccc5c4C3)OCCO2)cc1` ?
31 µM

What does the record list as TGI for CC(=O)OCC1OC(O[C@@H]2C[C@H]3C(C)(C)[C@H](OC(C)=O)CC[C@]3(C)[C@H]3CC[C@@]45C[C@H](O)C[C@H](C)[C@@H]4CC=C5[C@@]32C)C(O)C(O)C1O (some centres undefined) ?
25.5 µM

What does the record list as TGI for `Cn1c(=O)c2c(ncn2CCCCn2ccnc2[N+](=O)[O-])n(C)c1=O` ?
> 100 µM

What does the record list as TGI for `CN(C)c1cc2c(cc1Sc1nc3c(N)nccc3n1CCNCC(C)(C)C)OCO2` ?
14.5 µM

What does the record list as TGI for `O=[N+]([O-])c1ccccc1S(=O)(=O)c1ccccc1[N+](=O)[O-]` ?
> 100 µM

What does the record list as TGI for `NC(N)=NS(=O)(=O)c1ccc(Nc2c3ccccc3nc3ccc(C(=O)Nc4ccc(S(N)(=O)=O)cc4)cc23)cc1` ?
> 100 µM

What does the record list as TGI for `COc1cc(-c2nn(C)nc2-c2cc3ccccc3s2)cc(OC)c1OC` ?
> 100 µM

What does the record list as TGI for CCCCCCOC(=O)C(N)Cc1ccc(OC)cc1 (centres undefined) ?
> 100 µM

What does the record list as TGI for `C=CCOC1=C2CC[C@H](O)[C@@]2(C)CCC1=O` ?
> 100 µM

What does the record list as TGI for `C[C@@]12C[C@@H](c3ccccc3O1)N1CCSC1=N2` ?
> 100 µM

What does the record list as TGI for COC(=O)C(CCC1(C)OCCO1)C(C)=O (centres undefined) ?
> 100 µM

The reported numbers originate from PubChem BioAssay (NCI).
